Form field: kon (one value per entry).
- SYSTEM_TESTED: T1, Recombinant human CD123 SP1 ECD-His tag protein (human, UniProt P26951 20-305)
- T1 construct: bought from R&D Systems (#301-R3/CF); biotinylated for some assays; also called rhCD123 SP1; huCD123 ECD SP1
- T1 sequence: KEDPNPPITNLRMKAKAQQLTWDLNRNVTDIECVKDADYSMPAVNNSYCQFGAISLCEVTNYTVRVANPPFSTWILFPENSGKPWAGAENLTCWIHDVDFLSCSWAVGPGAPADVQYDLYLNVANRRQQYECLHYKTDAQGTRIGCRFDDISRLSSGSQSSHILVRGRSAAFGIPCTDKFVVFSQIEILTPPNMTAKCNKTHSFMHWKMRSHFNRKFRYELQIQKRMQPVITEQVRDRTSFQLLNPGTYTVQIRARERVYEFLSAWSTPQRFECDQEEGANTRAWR
- PROCEDURE_TEXT: SPR ProteOn, captured mAb
- Description: The biosensor surface was prepared by covalently coupling Goat anti-Human IgG (Fc) to the surface of a GLC chip (BioRad) using the manufacturer instructions for amine-coupling chemistry. […] The RU immobilized also included a goat anti-mouse Fc antibody that was added to capture other antibodies not included in the ones reported here. Since the mixture was 1:1 about 50% of these RU immobilized are expected to be goat anti-human Fc. […]

BINDER | kon [M⁻¹ s⁻¹]
I3RB19 (antibody, IgG1, V domains shown, IgG1; also called 13RB19) VH: EVQLLESGGGLVQPGGSLRLSCAASGFTFSNYAMSWVRQAPGKGLEWVSGIRGNGSSTYYADSVKGRFTISRDNSKNTLYLQMNSLRAEDTAVYYCAKGGPIGARFPDYLDYWGQGTLVTVSS VL: DIQMTQSPSSLSASVGDRVTITCRASQSIGDFLNWYQQKPGKAPKLLIYYASSLQSGVPSRFSGSGSGTDFTLTISSLQPEDFATYYCQQSYSTPLTFGQGTKVEIK | 211000
I3RB21 (antibody, IgG1, V domains shown, IgG1) VH: QVQLVQSGAEVKKPGSSVKVSCKASGGTFSSYAISWVRQAPGQGLEWMGGIIPIFGTANYAQKFQGRVTITADESTSTAYMELSSLRSEDTAVYYCAREGWWGQGKFDYWGQGTLVTVSS VL: EIVLTQSPATLSLSPGERATLSCRASQSVANFLAWYQQKPGQAPRLLIYAASNRATGIPARFSGSGSGTDFTLTISSLEPEDFAVYYCQQYFHWPYTFGQGTKVEIK | 521000
I3RB2 (antibody, IgG1, V domains shown, IgG1; also called I3RB02; 13RB2) VH: EVQLLESGGGLVQPGGSLRLSCAASGFTFSGYWMHWVRQAPGKGLEWVSAIRSDGSSKYYADSVKGRFTISRDNSKNTLYLQMNSLRAEDTAVYYCAKDGVIEDTFDYWGQGTLVTVSS VL: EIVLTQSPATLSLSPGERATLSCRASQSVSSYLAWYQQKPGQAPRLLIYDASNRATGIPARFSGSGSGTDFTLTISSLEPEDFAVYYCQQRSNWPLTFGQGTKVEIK | 1.06e+06
I3RB40 (antibody, IgG1, V domains shown, IgG1) VH: QVQLVQSGAEVKKPGSSVKVSCKASGGTFSSYAISWVRQAPGQGLEWMGGIIPIFGTANYAQKFQGRVTITADESTSTAYMELSSLRSEDTAVYYCARGQWWADTWFDYWGQGTLVTVSS VL: EIVLTQSPATLSLSPGERATLSCRASQSVAKWLAWYQQKPGQAPRLLIYGASNRATGIPARFSGSGSGTDFTLTISSLEPEDFAVYYCQQYHTAPWTFGQGTKVEIK | 574000

// data source = patent US20160068605A1
